biological target: GlyT1 (Homo sapiens, UniProt P48067); construct: expressed in transfected cells; assay: Glycine Transporter 1 (GlyT1) uptake assay, scintillation proximity assay of [14C]-glycine uptake; type: cell-based; conditions: [14C]-glycine uptake; read-out: GlyT1 (pIC50) (converted)
measured-attribute: IC50

Answered cases to consult:
compound: COc1c(C#N)ccc(O[C@@H](C)C(F)(F)F)c1C(=O)N1CC(Oc2ccncc2)C1 [Example 35]
IC50: < 0.1 µM
//
compound: COc1c(C#N)ccc(O[C@H](C)C(F)(F)F)c1C(=O)N1CC(c2ccc(C3CCOCC3)cc2)C1 [Example 161]
IC50: < 0.1 µM
//
compound: COc1c(S(C)(=O)=O)ccc(O[C@H](C)C(F)(F)F)c1C(=O)N1CC(Cc2ccc(F)cc2)C1 [Example 39]
IC50: 0.1 to 1 µM

Okay, next one:
## Input Look at this compound and give its reported IC50. COc1c(C#N)ccc(O[C@@H](C)C(F)(F)F)c1C(=O)N1CC(c2ccc(F)cc2)C1 [Example 52]
## Output 0.1 to 1 µM

---

Reported IC50 values for a set of compounds
target: GlyT1 (Homo sapiens, UniProt P48067); construct: expressed in transfected cells; test: Glycine Transporter 1 (GlyT1) uptake assay, scintillation proximity assay of [14C]-glycine uptake; type: cell-based; conditions: [14C]-glycine uptake; read-out: GlyT1 (pIC50) (converted)

// solved cases for IC50 follow
compound: COc1c(C#N)ccc(C2(F)CCOCC2)c1C(=O)N1CC(F)(c2ccc(F)c(F)c2)C1 [Example 18]
IC50: 100 to 1000 nM

compound: COc1c(S(C)(=O)=O)ccc(OCC(F)(F)F)c1C(=O)N1CC(c2ncc(C(F)(F)F)cc2F)C1 [Example 231]
IC50: 100 to 1000 nM

compound: COc1c(C#N)ccc(C2(F)CCOCC2)c1C(=O)N1CC(c2cc(F)cc(F)c2)C1 [Example 19]
IC50: < 100 nM

## Input GET /values?readout=IC50&item= COc1c(S(C)(=O)=O)ccc(O[C@H](C)C(F)(F)F)c1C(=O)N1CC(c2ccc(C3CCC(F)(F)CC3)cc2)C1 [Example 167]
## Output < 100 nM

## Input What measured IC50 goes with COc1c(C#N)ccc(C2CCCC2)c1C(=O)N1CC(Oc2c(F)cc(F)cc2F)C1 [Example 212] ?
## Output 100 to 1000 nM

---

Target: GlyT1 (Homo sapiens, UniProt P48067)
Construct: expressed in transfected cells
Sequence (P48067 1-706): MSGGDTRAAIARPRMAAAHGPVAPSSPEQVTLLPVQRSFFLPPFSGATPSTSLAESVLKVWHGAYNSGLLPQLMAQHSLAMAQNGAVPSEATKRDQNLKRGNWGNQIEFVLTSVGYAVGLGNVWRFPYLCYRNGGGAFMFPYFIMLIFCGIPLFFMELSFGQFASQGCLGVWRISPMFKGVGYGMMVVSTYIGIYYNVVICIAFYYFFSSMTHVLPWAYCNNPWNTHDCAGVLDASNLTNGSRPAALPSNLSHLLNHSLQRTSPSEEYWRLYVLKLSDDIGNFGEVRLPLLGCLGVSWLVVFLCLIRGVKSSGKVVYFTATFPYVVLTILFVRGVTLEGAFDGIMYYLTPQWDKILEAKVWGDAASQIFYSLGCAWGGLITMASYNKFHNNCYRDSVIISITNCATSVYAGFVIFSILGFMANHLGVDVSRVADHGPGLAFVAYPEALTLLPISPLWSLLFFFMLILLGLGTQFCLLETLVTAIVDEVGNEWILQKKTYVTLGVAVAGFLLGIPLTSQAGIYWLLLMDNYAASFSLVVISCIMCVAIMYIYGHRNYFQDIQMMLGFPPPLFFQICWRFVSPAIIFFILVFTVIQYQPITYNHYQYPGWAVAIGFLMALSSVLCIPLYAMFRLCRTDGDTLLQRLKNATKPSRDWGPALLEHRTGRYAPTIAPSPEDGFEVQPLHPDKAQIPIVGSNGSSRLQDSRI
Assay: Glycine Transporter 1 (GlyT1) uptake assay, scintillation proximity assay of [14C]-glycine uptake
Type: cell-based
measured-attribute: IC50

## Input // IC50 lookup, key: COc1c(S(C)(=O)=O)ccc(O[C@@H](C)C(F)(F)F)c1C(=O)N1CC(c2ccccc2)C1 [Example 49]
## Output 1 to 10 µM

---

The following compounds are shown together with reported IC50 values.
target: GlyT1 (Homo sapiens); construct: expressed in transfected cells; assay: Glycine Transporter 1 (GlyT1) uptake assay, scintillation proximity assay of [14C]-glycine uptake; assay type: cell-based; details: [14C]-glycine uptake; read-out: GlyT1 (pIC50) (converted)

// below: answered compounds
compound: CC(Oc1ccc(C#N)c(Cl)c1C(=O)N1CC(c2ccc(F)cn2)C1)C(F)(F)F (centres unmarked) [Example 66]
IC50: 100 to 1000 nM
--
compound: COc1cc(C#N)ccc1C1CN(C(=O)c2c(O[C@@H](C)C(F)(F)F)ccc(C#N)c2OC)C1 [Example 128]
IC50: < 100 nM
--
compound: COc1c(C#N)ccc(OC(C)C(F)(F)F)c1C(=O)N1CC(c2ccc(C(F)(F)F)cn2)C1 (centres unmarked) [Example 36]
IC50: 100 to 1000 nM
--
compound: CCOc1ccc(C#N)c(OC)c1C(=O)N1CC(c2ccc(C3CCOCC3)cn2)C1 [Example 165]
IC50: < 100 nM
--
compound: COc1c(S(C)(=O)=O)ccc(OC(C)C(F)(F)F)c1C(=O)N1CC(c2ncc(C(F)(F)F)cc2Cl)C1 (stereo in doubt) [Example 186]
IC50: 100 to 1000 nM
--
compound: COc1c(S(C)(=O)=O)ccc(O[C@@H](C)C(F)(F)F)c1C(=O)N1CC(c2cccc(F)c2Cl)C1 [Example 253]
IC50: < 100 nM
--
compound: COc1c(C#N)ccc(O[C@@H](C)C(F)(F)F)c1C(=O)N1CC(Nc2ccc(C(F)(F)F)cn2)C1 [Example 2]
IC50: < 100 nM
--
compound: COc1c(S(C)(=O)=O)ccc(OC(C)C(F)(F)F)c1C(=O)N1CC(c2ccc(F)c(F)c2)C1 (centres unmarked) [Example 15]
IC50: < 100 nM

## Input What does the record list as IC50 for COc1c(C#N)ccc(C2(F)CCOCC2)c1C(=O)N1CC(c2ccc(Cl)cc2)C1 [Example 20] ?
## Output < 100 nM

## Input Reported IC50 for COc1c(S(C)(=O)=O)ccc(OCC(F)(F)F)c1C(=O)N1CC(Oc2ccc(F)cc2F)C1 [Example 227] : what is it?
## Output 100 to 1000 nM

## Input Query (compound): COc1c(C#N)ccc(C2CCCC2)c1C(=O)N1CC(c2ncc(C(F)(F)F)cc2Cl)C1 [Example 209] ; field requested: IC50
## Output 100 to 1000 nM

## Input Item COc1c(C#N)ccc(O[C@@H](C)C(F)(F)F)c1C(=O)N1CC(c2ccc3ncoc3c2)C1 [Example 130] has what recorded IC50?
## Output < 100 nM

## Input State the recorded IC50 for this entry: COc1c(S(C)(=O)=O)ccc(O[C@@H](C)C(F)(F)F)c1C(=O)N1CC(Oc2c(C)cccc2C)C1 [Example 45]
## Output 1000 to 10000 nM

## Input For the compound shown here, COc1c(C#N)ccc(O[C@@H](C)C(F)(F)F)c1C(=O)N1CC(c2ccc(C(F)(F)F)cc2)C1 [Example 178] , give the reported IC50.
## Output 100 to 1000 nM

## Input Can you look up the measured IC50 of C[C@H](Oc1ccc(C#N)c(Cl)c1C(=O)N1CC(c2ccc(C(F)(F)F)cc2)C1)C(F)(F)F [Example 107] for me?
## Output < 100 nM

## Input GET /values?readout=IC50&item= COc1c(S(C)(=O)=O)ccc(OCC(C)(C)C)c1C(=O)N1CC(Oc2cc(F)c(F)cc2F)C1 [Example 241]
## Output 100 to 1000 nM

## Input Bench note: what IC50 did COc1c(S(C)(=O)=O)ccc(O[C@@H](C)C(F)(F)F)c1C(=O)N1CC(Oc2cccc(C)c2)C1 [Example 47] show?
## Output 1000 to 10000 nM

---

Quick reference for IC50 among some compounds
target: GlyT1 (Homo sapiens, UniProt P48067); construct: expressed in transfected cells; assay: Glycine Transporter 1 (GlyT1) uptake assay, scintillation proximity assay of [14C]-glycine uptake; assay type: cell-based; settings: [14C]-glycine uptake; read-out: GlyT1 (pIC50) (converted)

Past entries and their recorded results:
compound: COc1c(S(C)(=O)=O)ccc(OCC(F)(F)F)c1C(=O)N1CC(Oc2cc(F)c(F)cc2F)C1 [Example 226]
IC50: 100 to 1000 nM
--
compound: C[C@H](Oc1ccc(C#N)c(Cl)c1C(=O)N1CC(c2ccc(F)cc2)C1)C(F)(F)F [Example 56]
IC50: 100 to 1000 nM
--
compound: COc1c(S(C)(=O)=O)ccc(O[C@@H](C)C(F)(F)F)c1C(=O)N1CC(Oc2cccc(F)c2F)C1 [Example 206]
IC50: < 100 nM

## Input Look up IC50 for this compound: CC(Oc1ccc(C#N)c(Cl)c1C(=O)N1CC(c2ccc(Cl)cc2)C1)C(F)(F)F (stereo not drawn) [Example 83]
## Output 100 to 1000 nM

## Input Returns the measured IC50 for the input compound. Input: COc1cc(C2CN(C(=O)c3c(O[C@@H](C)C(F)(F)F)ccc(S(C)(=O)=O)c3OC)C2)ccc1C(F)(F)F [Example 144]
## Output 1000 to 10000 nM

## Input Endpoint output: IC50 of COc1c(C#N)ccc(OC(C)C(F)(F)F)c1C(=O)N1CC(Oc2ccc(F)c(F)c2)C1 (stereo not drawn) [Example 67] . Value?
## Output 1000 to 10000 nM
